Biological target: UniProt P00748
Assay: biochemical
Conditions: read-out: ka
Starred links: 1 amine or outer side, 2 acyl side, 3 side chain; linkers in the order of their positions; H or OH if unused. Positions of bridges follow the written chain, without caps; N, C: chain ends. Non-standard residues stand in square brackets, D forms with d. Residues, ends and D or L forms follow the SMILES beside them. X1 = O=C([C@@H]1CCC[C@H]1N[*:1])[*:2]
Quick reference: kon of the listed items.
Answer format: value, then unit.

compound	assayed_target	result
CC(C)C[C@@H]1NC(=O)[C@H](Cc2ccc(O)cc2)NC(=O)[C@H](CO)NC(=O)[C@@H]2CCC[C@H]2NC(=O)[C@H](CC(N)=O)NC(=O)[C@H](Cc2ccccc2)NC(=O)[C@H](CC(C)C)NC(=O)[C@H](CCCNC(=N)N)NC(=O)[C@@H]2CCCN2C(=O)[C@@H](Cc2ccc(O)cc2)NC(=O)CSC[C@H](C(=O)NCC(N)=O)NC(=O)[C@H](CCCNC(=N)N)NC(=O)[C@H](CCCNC(=N)N)NC1=O [F2] ({CH2CO}-[dY]PRLFN[X1]SYLRR[dC]G-NH2; thioether N-13)	UniProt P00748	3.07e+07 M⁻¹ s⁻¹

Field: next compound
Simply: CC(C)C[C@@H]1NC(=O)[C@H](Cc2ccc(O)cc2)NC(=O)[C@H](CO)NC(=O)[C@H](C)NC(=O)[C@H](CC(N)=O)NC(=O)[C@H](Cc2ccccc2)NC(=O)[C@H](CC(C)C)NC(=O)[C@H](CCCNC(=N)N)NC(=O)[C@@H]2CCCN2C(=O)[C@@H](Cc2ccc(O)cc2)NC(=O)CSC[C@H](C(N)=O)NC(=O)[C@H](CCCNC(=N)N)NC(=O)[C@H](CCCNC(=N)N)NC1=O [F2A] ({CH2CO}-[dY]PRLFNASYLRR[dC]-NH2; thioether N-13) , UniProt P00748, kon = 4.75e+06 M⁻¹ s⁻¹

====

Starred links: 1 amine or outer side, 2 acyl side, 3 side chain; linkers in the order of their positions; H or OH if unused. Positions of bridges follow the written chain, without caps; N, C: chain ends. Non-standard residues stand in square brackets, D forms with d. Residues, ends and D or L forms follow the SMILES beside them. X1 = O=C([C@@H]1CCC[C@H]1N[*:1])[*:2]; X2 = O=C([C@H]1CCC[C@@H]1N[*:1])[*:2]
Kd values recorded for interferon γ receptor 1 (IFNGR1) (Homo sapiens)
Dear colleague, please return just the value in nM, with no unit written.

compound	Kd (nM)
CC(C)[C@@H]1NC(=O)CNC(=O)[C@H](Cc2ccccc2)NC(=O)[C@@H](Cc2ccc(O)cc2)NC(=O)CSC[C@H](C(=O)NCC(N)=O)NC(=O)[C@H]([C@@H](C)O)NC(=O)[C@H](CCCNC(=N)N)NC(=O)[C@H](CC(N)=O)NC(=O)[C@H](Cc2ccc(O)cc2)NC(=O)[C@H](Cc2ccccc2)NC(=O)[C@@H]2CCC[C@H]2NC(=O)[C@H]2CCC[C@@H]2NC1=O [I1-6] ({CH2CO}-[dY]FGV[X2][X1]FYNRT[dC]G-NH2; thioether N-12)	1.87

For the compound CC(C)C[C@@H]1NC(=O)CNC(=O)[C@H](C(C)C)NC(=O)[C@@H](Cc2ccc(O)cc2)NC(=O)CSC[C@H](C(=O)NCC(N)=O)NC(=O)[C@H]([C@@H](C)O)NC(=O)[C@H](CCCNC(=N)N)NC(=O)[C@H](CC(N)=O)NC(=O)[C@H](CC(C)C)NC(=O)[C@H](CO)NC(=O)[C@@H]2CCC[C@H]2NC(=O)[C@H](CC(N)=O)NC1=O [I1-3] ({CH2CO}-[dY]VGLN[X1]SLNRT[dC]G-NH2; thioether N-12) , the measured Kd on interferon γ receptor 1 (IFNGR1) (Homo sapiens) was 150

Item CC(C)[C@@H]1NC(=O)CNC(=O)[C@H](Cc2ccccc2)NC(=O)[C@@H](Cc2ccc(O)cc2)NC(=O)CSC[C@H](C(=O)NCC(N)=O)NC(=O)[C@H]([C@@H](C)O)NC(=O)[C@H](CCCNC(=N)N)NC(=O)[C@H](CC(N)=O)NC(=O)[C@H](Cc2ccc(O)cc2)NC(=O)[C@H](Cc2ccccc2)NC(=O)[C@@H]2CCC[C@H]2NC(=O)[C@H](CCCNC(=N)N)NC1=O [I1-1] ({CH2CO}-[dY]FGVR[X1]FYNRT[dC]G-NH2; thioether N-12) ; assay system interferon γ receptor 1 (IFNGR1) (Homo sapiens); Kd reported as 5

For the compound CC(C)C[C@@H]1NC(=O)[C@H](CC(N)=O)NC(=O)[C@H](Cc2ccc(O)cc2)NC(=O)[C@H](CCCNC(=N)N)NC(=O)[C@@H]2CCCN2C(=O)[C@@H](Cc2ccc(O)cc2)NC(=O)CSC[C@H](C(=O)NCC(N)=O)NC(=O)[C@H](CC(N)=O)NC(=O)[C@@H]2CCC[C@H]2NC(=O)[C@H](Cc2ccccc2)NC(=O)[C@H](CCCNC(=N)N)NC(=O)[C@@H]2CCCN2C(=O)[C@H](CO)NC(=O)[C@H](C)NC(=O)CNC(=O)[C@H]2CCC[C@@H]2NC1=O [I2] ({CH2CO}-[dY]PRYNL[X2]GASPRF[X1]N[dC]G-NH2; thioether N-16) , the measured Kd on interferon γ receptor 1 (IFNGR1) (Homo sapiens) was 12.3
